This listing pairs compounds with measured S1P5 pEC50.
# Experimental System: human S1P5 receptor (Homo sapiens (Human), UniProt Q9H228)
# Sequence (Q9H228 whole entry): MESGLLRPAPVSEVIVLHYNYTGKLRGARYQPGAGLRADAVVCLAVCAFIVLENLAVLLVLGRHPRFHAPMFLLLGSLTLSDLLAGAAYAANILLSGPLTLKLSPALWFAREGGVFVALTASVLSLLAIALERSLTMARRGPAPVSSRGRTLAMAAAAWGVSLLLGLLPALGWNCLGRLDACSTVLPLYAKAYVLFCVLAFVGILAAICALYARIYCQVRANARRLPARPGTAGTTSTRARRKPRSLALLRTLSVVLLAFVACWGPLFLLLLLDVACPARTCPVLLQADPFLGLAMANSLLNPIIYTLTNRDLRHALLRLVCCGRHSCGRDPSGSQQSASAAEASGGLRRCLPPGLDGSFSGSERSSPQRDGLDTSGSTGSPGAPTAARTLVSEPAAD
# Experimental Protocol: In vitro functional activity (agonism) on human S1P5 receptors, CHO-human-S1P5-Aequorin assay
# Format: cell-based
# Assay Setup: aequorin luminescence, CHO cells, 3 independent experiments
Counter-ions that a name gives are not always drawn.
Give a plain numeric answer without units written out.

| Compound | Experimental System | S1P5 pEC50 |
| --- | --- | --- |
| CC(CN1CCC2(CC1)COc1cc(SCc3c(Cl)cccc3Cl)ccc12)C(=O)O (stereo not drawn) [Compound 153, hydrochloride] | human S1P5 receptor (Homo sapiens (Human), UniProt Q9H228) | 7.9 |
| O=C(O)CCN1CCC2(CC1)COc1cc(SCc3c(Cl)cccc3C3CC3)ccc12 [Compound 141, hydrochloride] | human S1P5 receptor (Homo sapiens (Human), UniProt Q9H228) | 8.2 |

Turning to the following compound.
[Q] Can you look up the measured S1P5 pEC50 of CCc1cccc(Cl)c1COc1ccc2c(c1F)OCC21CCN(CCC(=O)O)CC1 [Compound 136, hydrochloride] for me?
[A] 8
